The entries below come with measured Ki values attached.
# system-name: UniProt P06672
# Sequence (P06672 1-568): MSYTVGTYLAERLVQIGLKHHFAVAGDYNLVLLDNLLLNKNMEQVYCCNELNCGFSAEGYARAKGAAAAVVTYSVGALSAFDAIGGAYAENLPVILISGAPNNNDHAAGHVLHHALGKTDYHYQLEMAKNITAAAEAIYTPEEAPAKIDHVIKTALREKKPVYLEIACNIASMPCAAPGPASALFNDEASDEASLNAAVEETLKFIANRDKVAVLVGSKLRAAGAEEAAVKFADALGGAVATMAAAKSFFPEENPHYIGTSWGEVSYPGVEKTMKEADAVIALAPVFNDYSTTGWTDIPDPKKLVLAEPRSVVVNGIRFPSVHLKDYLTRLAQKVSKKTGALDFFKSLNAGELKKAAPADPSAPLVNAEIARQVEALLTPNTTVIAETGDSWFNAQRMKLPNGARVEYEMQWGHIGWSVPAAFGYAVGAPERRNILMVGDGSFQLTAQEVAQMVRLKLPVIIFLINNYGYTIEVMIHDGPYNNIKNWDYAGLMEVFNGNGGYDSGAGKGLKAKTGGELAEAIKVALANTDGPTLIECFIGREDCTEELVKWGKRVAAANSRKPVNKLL
State the answer as a number, implicitly in nM.

Notebook: Cc1ncc(Cn2cc(CCCC(=O)NO)nn2)c(N)n1 [Compound 24b] , Ki read as 680

Notebook: Cc1ncc(Cn2cc(CCCCC(=O)NO)nn2)c(N)n1 [Compound 24c] , Ki read as 890

Recorded values, source paper PMC10184313.
